- Target Of Assay: recombinant rat AR LBD (Rattus norvegicus)
- Construct: recombinant rat AR LBD
- Sequence (P15207 651-882 limits assumed): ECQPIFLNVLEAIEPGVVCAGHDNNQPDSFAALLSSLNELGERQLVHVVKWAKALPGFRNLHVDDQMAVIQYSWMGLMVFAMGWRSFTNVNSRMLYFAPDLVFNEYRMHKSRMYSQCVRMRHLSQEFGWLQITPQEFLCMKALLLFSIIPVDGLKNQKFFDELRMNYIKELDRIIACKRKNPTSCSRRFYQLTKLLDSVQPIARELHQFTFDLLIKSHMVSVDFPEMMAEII
- Assay Protocol: competition fluorescence polarization binding assay
- Condition Context: relative binding affinity; ratio of Kd of test compound to Kd of DHT multiplied by 100
Measured Quantity: RBA (DHT = 100)

a. CC12Cc3cnn(-c4ccc(F)cc4)c3C=C1CCCC2CCCO (stereo not drawn)
b. CC12Cc3cnn(-c4ccc(F)cc4)c3C=C1CCCC2CCc1ccc(CO)cc1 (stereo not drawn)
In the pair a and b , the larger recorded RBA (DHT = 100) belongs to which? Answer format: the label of the selected item.
a
(a: 19, b: 0.12)
